Tested on: Male Sprague-Dawley rat
Details: in vivo
Attribute: MPP (moderate pain-producing potency)
measurement.label: MPP (moderate pain-producing potency) (mg/L)

{"molecule": "COc1cc(CNC(=S)NC(COC(=O)C(C)(C)C)Cc2ccc(C(C)(C)C)cc2)ccc1OCCN (stereo not shown) [Compound 75]", "measurement.label": "MPP (moderate pain-producing potency)", "assay.result": 47}
{"molecule": "COc1cc(CNC(=S)NC(COC(=O)C(C)(C)C)Cc2ccc(C)c(C)c2)ccc1O (stereo not shown) [Compound 62]", "measurement.label": "MPP (moderate pain-producing potency)", "assay.result": 11.57}
{"molecule": "COc1cc(CNC(=S)NCC(COC(=O)C(C)(C)C)Cc2ccc(C(C)(C)C)cc2)ccc1O (stereo not shown) [JYL-273, reference compound]", "measurement.label": "MPP (moderate pain-producing potency)", "assay.result": 23}
{"molecule": "COc1cc(CNC(=S)NC(COC(=O)C(C)(C)C)Cc2ccc(C)c(C)c2)ccc1OCCN (stereo not shown) [Compound 74]", "measurement.label": "MPP (moderate pain-producing potency)", "assay.result": 18.02}
{"molecule": "COc1cc(CNC(=S)NCC(COC(=O)C(C)(C)C)Cc2ccc(C)c(C)c2)ccc1O (stereo not shown) [JYL-79, reference compound]", "measurement.label": "MPP (moderate pain-producing potency)", "assay.result": 1.7}
{"molecule": "COc1cc(CC(=O)NCC(CCc2ccc(C)c(C)c2)COC(=O)C(C)(C)C)ccc1OCCN (stereo not shown) [Compound 38]", "measurement.label": "MPP (moderate pain-producing potency)", "assay.result": 29}
{"molecule": "COc1cc(CC(=O)NCC(COC(=O)C(C)(C)C)Cc2ccc(C)c(C)c2)ccc1OCCN (stereo not shown) [MSK-195, reference compound]", "measurement.label": "MPP (moderate pain-producing potency)", "assay.result": 14.9}

====

Recorded RPP (relative pain-producing potency) for the following compounds
System: Male Sprague-Dawley rat
Details: in vivo

{"compound": "COc1cc(CNC(=S)NC(COC(=O)C(C)(C)C)Cc2ccc(C)c(C)c2)ccc1O (stereo not drawn)", "RPP (relative pain-producing potency)": 14}
{"compound": "COc1cc(CNC(=S)NCC(COC(=O)C(C)(C)C)Cc2ccc(C)c(C)c2)ccc1O (stereo not drawn) [JYL-79, reference compound]", "RPP (relative pain-producing potency)": 94}
{"compound": "COc1cc(CC(=O)NCC(COC(=O)C(C)(C)C)Cc2ccc(C)c(C)c2)ccc1OCCN (stereo not drawn) [MSK-195, reference compound]", "RPP (relative pain-producing potency)": 11}
{"compound": "COc1cc(CNC(=S)NCC(COC(=O)C(C)(C)C)Cc2ccc(C(C)(C)C)cc2)ccc1O (stereo not drawn) [JYL-273, reference compound]", "RPP (relative pain-producing potency)": 7}
